- experiment: gradient 5% acetonitrile 3 min, to 50% in 2 min, to 85% in 15 min, held 3 min, 100 µL/min
- settings: column: Zorbax Extend-C18 2.1 x 50 mm; eluents: water / acetonitrile, 0.1% formic acid
Reported RP-LC retention time values are given for each entry in this list.
Record the value in s, omitting the unit from your answer.

Consider the reported RP-LC retention time for these compounds:
- O=C(NCc1ccco1)c1ccc(NS(=O)(=O)c2cccc(C(F)(F)F)c2)cc1: 818
- CCCn1c(C2CCN(S(=O)(=O)c3ccccc3)C2)nc2cccnc21 (centres undefined): 783
- CCOC(=O)CNC(=O)N1CCCC1c1cccc(C)c1 (centres undefined): 784
- Clc1ccc(-c2nc3cnccn3c2Nc2ccc3c(c2)OCO3)cc1: 930
- Cn1nc2n(c1=O)CCN(C(=O)C1CC=CCC1)CC2 (centres undefined): 624

Qu. Entry O=C1C2CCCN2C(=O)c2ccccc2N1Cc1ccccc1 (centres undefined) has what RP-LC retention time?
Ans. 744

Qu. Please give the measured RP-LC retention time for this compound: `Cc1ccc(S(=O)(=O)N2CCc3c(c(-c4nnc(-c5ccccc5)o4)nn3C)C2)c(C)c1`
Ans. 1020

Qu. Field request: RP-LC retention time | item: `CCc1nnc(NC(=O)c2ccc3c(c2)c(=O)cc(C)n3CC)s1`
Ans. 571

Qu. Form field: reported RP-LC retention time of `COc1cccc(S(=O)(=O)N2CCOCC2)c1`
Ans. 708
